# ASSAY_NOTES: Cytotoxicity against human Hep2 cell line after 72 hrs
# Assay type: cell-based, HEp-2
# CONDITION_NOTES: Hep2 cells
Param label: returns Y when CC50 at 72 h < 40 µM, returns N otherwise, including exact equality.

>>> cat("COc1c(-c2ccc3c(c2)CCNC3)c(F)cc2c(=O)c3c(=O)[nH]sc3n(C3CC3)c12")
"N"
>>> cat("COc1c(N2C[C@@H]3CCCN[C@@H]3C2)c(F)cc2c(=O)c(C(=O)O)cn(C3CC3)c12")
"N"
>>> cat("CO/N=C1\\CN(c2nc3c(cc2F)c(=O)c(C(=O)O)cn3C2CC2)CC1CN (stereo unspecified)")
"N"
>>> cat("COc1c(-c2ccncc2)ccc2c(=O)c3c(=O)[nH]sc3n(C3CC3)c12")
"N"
>>> cat("O=c1[nH]sc2c1c(=O)c1cc(F)c(-c3ccc4c(c3)CCNC4)cc1n2C1CC1")
"Y"
>>> cat("COc1c(-c2ccc3c(c2)CN[C@@H]3C)c(F)cc2c(=O)c3c(=O)[nH]sc3n(C3CC3)c12")
"Y"
>>> cat("COc1c(-c2ccc3c(c2)CN[C@@H]3C)ccc2c(=O)c3c(=O)[nH]sc3n(C3CC3)c12")
"Y"
>>> cat("COc1c(-c2ccnc(C)c2)c(F)cc2c(=O)c3c(=O)[nH]sc3n(C3CC3)c12")
"N"
>>> cat("O=C(O)c1cn(C2CC2)c2cc(N3CCNCC3)c(F)cc2c1=O")
"N"
>>> cat("COc1c(-c2ccncc2)c(F)cc2c(=O)c3c(=O)[nH]sc3n(C3CC3)c12")
"N"

###

# ASSAY_NOTES: Cytotoxicity against human HepG2 cells after 72 hrs
# Format: cell-based
The following molecules are listed with their measured CC50 at 72 h values.
READOUT: CC50 at 72 h (µM)

>>> result("CO/N=C1\\CN(c2nc3c(cc2F)c(=O)c(C(=O)O)cn3C2CC2)CC1CN (configuration not stated) [GEMIFLOXACIN]")
35
>>> result("COc1c(-c2cc(C)nc(C)c2)c(F)cc2c(=O)c3c(=O)[nH]sc3n(C3CC3)c12")
65
>>> result("COc1c(-c2ccc3c(c2)CN[C@@H]3C)c(F)cc2c(=O)c3c(=O)[nH]sc3n(C3CC3)c12")
14
>>> result("COc1c(-c2ccc3c(c2)CNC3)c(F)cc2c(=O)c3c(=O)[nH]sc3n(C3CC3)c12")
35

###

# ASSAY_NOTES: Cytotoxicity against human Hep2 cell line after 72 hrs
# Type: cell-based, HEp-2
# CONDITION_NOTES: Hep2 cells
Param label: returns Y when CC50 at 72 h < 60 µM, returns N otherwise, including exact equality.

>>> cat("COc1c(-c2ccc3c(c2)CNC3)c(F)cc2c(=O)c3c(=O)[nH]sc3n(C3CC3)c12")
"Y"
>>> cat("O=c1[nH]sc2c1c(=O)c1cc(F)c(-c3ccncc3)nc1n2C1CC1")
"N"
>>> cat("Cc1cc(-c2nc3c(cc2F)c(=O)c2c(=O)[nH]sc2n3C2CC2)ccn1")
"N"
>>> cat("COc1c(-c2ccc3c(c2)CNC3)ccc2c(=O)c3c(=O)[nH]sc3n(C3CC3)c12")
"N"
>>> cat("COc1c(-c2cc(C)nc(C)c2)ccc2c(=O)c3c(=O)[nH]sc3n(C3CC3)c12")
"N"
>>> cat("Cc1cc(-c2nc3c(cc2F)c(=O)c2c(=O)[nH]sc2n3C2CC2)cc(C)n1")
"N"
>>> cat("O=c1[nH]sc2c1c(=O)c1cc(F)c(-c3ccc4c(c3)CNC4)cc1n2C1CC1")
"Y"
>>> cat("COc1c(-c2cc(C)nc(C)c2)c(F)cc2c(=O)c3c(=O)[nH]sc3n(C3CC3)c12")
"N"
>>> cat("COc1c(-c2ccc3cnccc3c2)ccc2c(=O)c3c(=O)[nH]sc3n(C3CC3)c12")
"Y"

###

The following molecules are listed with their measured MIC values.
# Tested on: Staphylococcus aureus
# ASSAY_NOTES: Antibacterial activity against methicillin-resistant Staphylococcus aureus
# Type: functional
READOUT: MIC (µg/mL)

>>> result("COc1c(-c2cc(C)nc(C)c2)ccc2c(=O)c3c(=O)[nH]sc3n(C3CC3)c12")
1
>>> result("COc1c(-c2ccncc2)c(F)cc2c(=O)c3c(=O)[nH]sc3n(C3CC3)c12")
1
>>> result("C[C@H]1NCc2cc(-c3cc4c(cc3F)c(=O)c3c(=O)[nH]sc3n4C3CC3)ccc21")
1

###

# ASSAY_NOTES: Cytotoxicity against human HepG2 cells after 72 hrs
# Format: cell-based
READOUT: CC50 at 72 h

>>> result("COc1c(N2C[C@@H]3CCCN[C@@H]3C2)c(F)cc2c(=O)c(C(=O)O)cn(C3CC3)c12")
"> 100 µM"
>>> result("COc1c(-c2ccnc(C)c2)c(F)cc2c(=O)c3c(=O)[nH]sc3n(C3CC3)c12")
"> 100 µM"
>>> result("O=C(O)c1cn(C2CC2)c2cc(N3CCNCC3)c(F)cc2c1=O")
"> 100 µM"
